The reported measurements were obtained from PubChem BioAssay AID1963833.

Test system: 883617-216-R-J1-PDC complex spheroid viability;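 also: spheroids exposed to compounds for seven days before readout; 100% = DMSO vehicle control viability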
Experiment: Anticancer human tumor 883617-216-R-J1-PDC patient-derived bladder carcinoma cell line growth inhibition [POLQ]
Conditions: second compound 0.0316 µM; first compound 0.0316 µM; active compounds read low
Hi there, I'd appreciate the recorded viability, T/C for every entry that follows.
Respond numerically; units are % and should not be typed.

Find the recorded viability, T/C belonging to C=CCn1c(=O)c2cnc(Nc3ccc(N4CCN(C)CC4)cc3)nc2n1-c1cccc(C(C)(C)O)n1 + Cc1cccc(N(C)C(=O)C2C(O)CCN2c2nc(C)cc(C(F)(F)F)c2C#N)c1 and report it. 96.7

Look up viability, T/C for this molecule: CC1COCCN1c1cc(-c2ccnn2C)c2ccnc(-c3ccn[nH]3)c2n1 (stereo not given) + Nc1ccc(C#CCN(C(=O)Cc2ncc(C(F)(F)F)cc2C(F)(F)F)c2ccc(F)cc2)nn1 76.9

Look at this molecule and give its reported viability, T/C. COc1ccc([C@@H](O)c2cc(-c3ncnc4cc(N5CCOCC5)ccc34)c(F)cc2Cl)nn1 + COC1C(OC(N)=O)C(O)C(Oc2ccc3c(O)c(NC(=O)c4ccc(O)c(CC=C(C)C)c4)c(=O)oc3c2C)OC1(C)C 92.5

Consider the molecule shown here: CCc1cc2c(N3CCc4c(cc(Cn5ccnc5)cc4-c4cn(C)nc4C(F)(F)F)C3=O)cc(C)nc2c(OC)n1 + COC1C(OC(N)=O)C(O)C(Oc2ccc3c(O)c(NC(=O)c4ccc(O)c(CC=C(C)C)c4)c(=O)oc3c2C)OC1(C)C What is its recorded viability, T/C? 96.2

Any idea what viability, T/C was measured for CC[C@@]1(O)C(=O)OCc2c1cc1n(c2=O)Cc2cc3c(CN(C)C)c(O)ccc3nc2-1 + COC1C(OC(N)=O)C(O)C(Oc2ccc3c(O)c(NC(=O)c4ccc(O)c(CC=C(C)C)c4)c(=O)oc3c2C)OC1(C)C ? 67.4
